Biological target: HGXPRT (Trypanosoma brucei brucei)
Test: Inhibition studies, Ki for recombinant HGXPRT (spectrophotometric assay)
Assay type: biochemical
Conditions: 0.1 M Tris pH 8.4, 0.11 M MgCl2, 25°C; parent ANP; read-out: HGXPRT Ki
reported.metric: Ki (µM)
Write it as a number; the unit µM goes unstated.

Use the examples below as a reference point.
O=c1[nH]cnc2c1ncn2CCN(CCN(CCP(=O)(O)O)CCP(=O)(O)O)CCP(=O)(O)O: 10.5
N#CCCN(CCn1cnc2c(=O)[nH]c(N)nc21)CCP(=O)(O)O: 19.9
Nc1nc2c(ncn2CCN(CCOCP(=O)(O)O)CCP(=O)(O)O)c(=O)[nH]1: 6.54

Entry under review: Nc1nc2c(ncn2CC(COCCP(=O)(O)O)OCCP(=O)(O)O)c(=O)[nH]1 (stereo not shown) . Reported Ki? 0.77

====

Listing of entries alongside the reported pKi.
Biological target: HGPRT-I (Trypanosoma brucei brucei, UniProt Q07010)
Construct: 6x His-tag (N); AcTEV cleavage site (N); made in house; host or cells: E. coli One Shot BL21(DE3)
Sequence (Q07010 2-210 limits assumed): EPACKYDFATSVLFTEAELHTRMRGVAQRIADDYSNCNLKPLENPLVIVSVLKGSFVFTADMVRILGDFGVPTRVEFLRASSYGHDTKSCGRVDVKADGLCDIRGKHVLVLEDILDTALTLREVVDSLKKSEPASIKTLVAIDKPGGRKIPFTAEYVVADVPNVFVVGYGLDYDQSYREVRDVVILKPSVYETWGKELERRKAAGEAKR
Test: Inhibition studies, Ki for recombinant HGPRT-I (spectrophotometric assay)
Assay type: biochemical
Settings: 0.1 M Tris pH 8.4, 0.11 M MgCl2, 25°C; parent ANP; read-out: HGPRT-I Ki
// returns pKi (minus log10 of molar concentration), number only

Some compounds with known pKi results, for comparison:
Nc1nc2c(ncn2CCN(CCN(CCP(=O)(O)O)CCP(=O)(O)O)CCP(=O)(O)O)c(=O)[nH]1: 6.54
Nc1nc2c(ncn2CCN(CCOCP(=O)(O)O)CCP(=O)(O)O)c(=O)[nH]1: 6.96
N#CCCN(CCn1cnc2c(=O)[nH]c(N)nc21)CCP(=O)(O)O: 4.87
Nc1nc2c(ncn2CC(COCCP(=O)(O)O)OCCP(=O)(O)O)c(=O)[nH]1 (centres unmarked): 6.05

# next compound below
If you can, please state the reported pKi value of O=c1[nH]cnc2c1ncn2CCN(CCN(CCP(=O)(O)O)CCP(=O)(O)O)CCP(=O)(O)O . 5.61

====

Each item that follows carries a reported Ki.
Target: UniProtKB Q38C93
Sequence (Q38C93 entry or part of it): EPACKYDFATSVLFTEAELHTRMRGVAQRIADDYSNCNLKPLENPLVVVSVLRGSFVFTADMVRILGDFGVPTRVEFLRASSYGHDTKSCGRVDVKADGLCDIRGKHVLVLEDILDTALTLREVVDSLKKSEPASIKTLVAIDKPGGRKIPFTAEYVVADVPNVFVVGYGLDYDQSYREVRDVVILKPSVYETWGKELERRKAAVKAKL
Experiment: Inhibition studies, Ki for recombinant HGPRT-II (spectrophotometric assay)
Format: biochemical
Conditions: 0.1 M Tris pH 8.4, 0.11 M MgCl2, 25°C; parent ANP
Please give a number only; it is taken to be in nM.

The examples below pair each entry with its known result.
Nc1nc2c(ncn2CCN(CCN(CCP(=O)(O)O)CCP(=O)(O)O)CCP(=O)(O)O)c(=O)[nH]1 [compound 4]: 310
O=c1[nH]cnc2c1ncn2CCN(CCN(CCP(=O)(O)O)CCP(=O)(O)O)CCP(=O)(O)O [compound 5]: 7020
Nc1nc2c(ncn2CCN(CCOCP(=O)(O)O)CCP(=O)(O)O)c(=O)[nH]1 [compound 2]: 250
N#CCCN(CCn1cnc2c(=O)[nH]c(N)nc21)CCP(=O)(O)O [compound 1]: 14200

Shifting focus to the molecule that follows.
Consider the molecule Nc1nc2c(ncn2CC(COCCP(=O)(O)O)OCCP(=O)(O)O)c(=O)[nH]1 (centres unmarked) [compound 7] and give its measured Ki. 1880

====

Molecular target: HGXPRT (Trypanosoma brucei brucei, UniProt Q38CA1)
Sequence (Q38CA1 entry or part of it): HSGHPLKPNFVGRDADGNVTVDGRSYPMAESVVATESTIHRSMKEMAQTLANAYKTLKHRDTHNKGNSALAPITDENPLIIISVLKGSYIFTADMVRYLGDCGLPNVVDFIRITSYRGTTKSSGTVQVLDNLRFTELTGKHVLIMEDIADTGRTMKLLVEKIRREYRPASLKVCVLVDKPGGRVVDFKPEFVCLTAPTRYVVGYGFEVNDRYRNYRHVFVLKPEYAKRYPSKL
Experiment: Inhibition studies, Ki for recombinant HGXPRT (spectrophotometric assay)
Format: biochemical
Conditions: HGXPRT Ki, 0.1 M Tris pH 8.4, 0.11 M MgCl2, 25°C; parent ANP
reported.metric: Ki (nM)
Numbers only here, please. The scale is nM.

If you can, please state the reported Ki value of Nc1nc2c(ncn2CCN(CCN(CCP(=O)(O)O)CCP(=O)(O)O)CCP(=O)(O)O)c(=O)[nH]1 . 1860
